# TEST_METHOD_NOTES: clinical
# TEST_CONTEXT: human, in vivo, po
MEASURE: Tmax at […] (h)

{"SMILES_INPUT": "O=C1CC2(CCCC2)CC(=O)N1CCCCN1CCN(c2ncccn2)CC1", "VAL": 1}

---

# TEST_METHOD_NOTES: clinical
# TEST_CONTEXT: human, in vivo, po

{"SMILES_INPUT": "O=C1CC2(CCCC2)CC(=O)N1CCCCN1CCN(c2ncccn2)CC1", "OUTPUT_UNIT": "ng/mL", "Cmax at […]": 8}

---

# TEST_METHOD_NOTES: clinical
# TEST_CONTEXT: human, in vivo, po, T1/2 of buspirone
MEASURE: half-life at […] (h)

{"SMILES_INPUT": "O=C1CC2(CCCC2)CC(=O)N1CCCCN1CCN(c2ncccn2)CC1", "MEASURE": "half-life at […]", "OUTPUT_UNIT": "h", "VAL": 2.6}

---

# TEST_METHOD_NOTES: clinical
# TEST_CONTEXT: human, in vivo, po

{"SMILES_INPUT": "O=C1CC2(CCCC2)CC(=O)N1CCCCN1CCN(c2ncccn2)CC1", "AUC(0-t) at […]": "29.4 ng·h/mL"}
